Each entry below carries its reported pEC50.
Test system: Feline Infectious Peritonitis Virus (FIPV) strain 79-1146
Experiment: CPE antiviral assay for FIPV in Crandell-Rees Feline Kidney (CrFK) cells
Type: cell-based
Settings: FIPV strain 79-1146 infected CRFK cells, 96 hrs, CPE by CellTiterGlo; read-out: EC 50
pEC50: −log10 of the molar value.

- C[C@@]1(O)[C@H](O)[C@@H](CO)O[C@H]1n1ccc2c(N)ncnc21: < 4.52

We now examine a further molecule.
Query string: Looking for the measured pEC50 of CC(C)C[C@H](NC(=O)OCc1ccccc1)C(=O)N[C@@H](CC1CCNC1=O)C(O)S(=O)(=O)O (some centres unmarked) , can you help?
Result string: 5.52 to 5.74
